# target_or_system: CYP11A1 (Homo sapiens, UniProt P05108)
# Construct: host or cells: NCI-H295R
# Sequence (P05108 40-521): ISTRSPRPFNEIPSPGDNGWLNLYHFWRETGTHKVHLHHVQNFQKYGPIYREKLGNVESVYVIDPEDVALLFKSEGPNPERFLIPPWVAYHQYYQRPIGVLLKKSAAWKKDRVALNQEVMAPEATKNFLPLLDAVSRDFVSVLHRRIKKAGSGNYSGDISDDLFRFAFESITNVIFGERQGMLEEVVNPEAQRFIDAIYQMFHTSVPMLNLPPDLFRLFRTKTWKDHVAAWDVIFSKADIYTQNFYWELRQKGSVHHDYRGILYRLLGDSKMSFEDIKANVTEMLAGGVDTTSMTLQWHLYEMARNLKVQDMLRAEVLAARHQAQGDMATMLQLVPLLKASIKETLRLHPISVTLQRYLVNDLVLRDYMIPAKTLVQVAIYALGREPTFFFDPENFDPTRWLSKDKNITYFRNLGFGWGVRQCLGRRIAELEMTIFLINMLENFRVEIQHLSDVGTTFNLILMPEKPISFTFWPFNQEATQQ
# experiment_notes: NCI-H295R cellular pregnenolone biosynthesis inhibition assay (ELISA method)
# Type: cell-based
# assay_setup: NCI-H295R cells, 3 days incubation, pregnenolone in cell supernatant by ELISA; read-out: IC50
# Description: The experiment aims to test the inhibitory effect of the compounds of the present disclosure on cellular pregnenolone biosynthesis, and to assess the inhibitory effect of the compounds on CYP11A1 target based on their IC50 values. NCI-H295R cells (MINGZHOUBIO, MZ-2138) cultured in NCI-H295R complete medium (MINGZHOUBIO, MCM-0399). […]
Here, each record is paired with measured IC50 data.

Use these answered entries as a reference point.
COc1c(CCC2CCN(S(C)(=O)=O)CC2)cc(F)c(CN2Cc3ccccc3C2)c1F [compound 64] = < 100 nM
CS(=O)(=O)N1CCC(COc2ccc(CN3Cc4ccccc4C3)cc2Cl)CC1 [compound 16] = < 100 nM
CC(C)(C)OC(=O)N1CCC2(CCN(c3ccc(CN4Cc5ccccc5C4)cc3F)CC2)C1 [compound 51] = > 300 nM
CS(=O)(=O)N1CCC(COc2cc(F)c(CN3Cc4ccccc4C3)cc2Br)CC1 [compound 25] = < 100 nM

Lookup: Please tell me the measured IC50 for CC(C)Oc1cc(CN2Cc3ccccc3C2)ccc1OCC1CCN(S(C)(=O)=O)CC1 [compound 21] ; system: CYP11A1 (Homo sapiens, UniProt P05108).
Found: < 100 nM

Lookup: # assay system CYP11A1 (Homo sapiens, UniProt P05108): give IC50 of CS(=O)(=O)N1CCC(COc2cc(F)c(CN3Cc4ccccc4C3)cc2O)CC1 [compound 52]
Found: < 100 nM

Lookup: Provide measured IC50 on CYP11A1 (Homo sapiens, UniProt P05108) for CS(=O)(=O)N1CCC(COc2cc(F)c(CN3Cc4ccccc4C3)cc2F)CC1 [compound 32] please.
Found: < 100 nM

Lookup: Enter IC50 (test system CYP11A1 (Homo sapiens, UniProt P05108)) for COc1cc(CN2Cc3ccccc3C2)ccc1CCC1CCN(C(=O)CC#N)CC1 [compound 68]
Found: < 100 nM

Lookup: Answer with IC50 of CS(=O)(=O)N1CCC(COc2ccc(CN3Cc4ccccc4C3)cc2-c2nccs2)CC1 [compound 38] measured for CYP11A1 (Homo sapiens, UniProt P05108).
Found: > 300 nM

Lookup: Tell me IC50 of C=Cc1cc(CN2Cc3ccccc3C2)ccc1OCC1CCN(S(C)(=O)=O)CC1 [compound 26] when tested on CYP11A1 (Homo sapiens, UniProt P05108).
Found: < 100 nM

Lookup: Under CYP11A1 (Homo sapiens, UniProt P05108): report IC50 of COc1cc(CN2Cc3ccccc3C2)ccc1CCC1CCN(S(=O)(=O)C2CC2)CC1 [compound 69] .
Found: < 100 nM
